Kindly state max for each of the entries shown.
biological target: T1, Claudin 18.2 (CLDN18.2), expressed on CHOS-CLDN 18.2 / HEK293-CLDN 18.2 / HCC827-CLDN 18.2 cells (human, UniProt P56856-2 1-261); test: FACS, CHOS-CLDN18.2 cells
T1 construct: whole, on cells; The species is not repeated for the CHOS-CLDN 18.2 cells; also called claudin-18A2

# input Please look up its max: QP14641461 (antibody, human IgG1, kappa, V domains shown, Humanized from QP207208) VH: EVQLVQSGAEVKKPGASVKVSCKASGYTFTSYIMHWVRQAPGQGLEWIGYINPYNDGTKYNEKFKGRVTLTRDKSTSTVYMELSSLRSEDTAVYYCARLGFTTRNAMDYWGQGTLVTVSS VL: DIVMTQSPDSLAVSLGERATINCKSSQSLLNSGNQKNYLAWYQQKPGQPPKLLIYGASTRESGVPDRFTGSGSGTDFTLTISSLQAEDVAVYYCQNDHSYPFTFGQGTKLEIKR
# output 166000

# input Please look up its max: QP14641460 (antibody, human IgG1, kappa, V domains shown, Humanized from QP207208) VH: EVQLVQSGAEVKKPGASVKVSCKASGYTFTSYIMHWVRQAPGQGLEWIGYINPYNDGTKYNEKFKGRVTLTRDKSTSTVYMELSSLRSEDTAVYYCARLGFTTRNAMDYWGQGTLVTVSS VL: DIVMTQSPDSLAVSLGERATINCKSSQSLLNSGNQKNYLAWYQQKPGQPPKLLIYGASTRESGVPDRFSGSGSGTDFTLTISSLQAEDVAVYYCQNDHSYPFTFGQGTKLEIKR
# output 191000
